Tested on: IGROV1 ovarian
Test: NCI tumour cell line growth inhibition, 48 h
Listed here: items and their measured TGI.
recorded endpoint: TGI

[[record]]
smiles_str = "Cc1ccc2c(-c3ccnc(Nc4cccc(C(F)(F)F)c4)n3)c(-c3ccccc3)nn2n1"
recorded_endpoint = "TGI"
result = "24.4 µM"

[[record]]
smiles_str = "CN1CCN(CCCCCOc2cc(O)c3c(=O)cc(-c4ccccc4)oc3c2)CC1"
recorded_endpoint = "TGI"
result = "5.64 µM"

[[record]]
smiles_str = "O=c1[nH]c(-c2ccccc2)nc2cc([N+](=O)[O-])c(/C(Cl)=C/c3ccccc3)cc12"
recorded_endpoint = "TGI"
result = "> 100 µM"

[[record]]
smiles_str = "Nc1nc(N)c(N=Nc2ccccc2)c(=O)[nH]1"
recorded_endpoint = "TGI"
result = "> 100 µM"

[[record]]
smiles_str = "Cc1[nH]c2ccccc2c1/C=C/c1c(C)[nH]c2ccccc12"
recorded_endpoint = "TGI"
result = "> 100 µM"

[[record]]
smiles_str = "C=C(Cl)[C@](Cl)(CBr)CC[C@@H](Br)C(C)(C)Cl"
recorded_endpoint = "TGI"
result = "21.2 µM"

[[record]]
smiles_str = "C=C(CC)C(=O)c1ccc(OCC(=O)O)c(Cl)c1Cl"
recorded_endpoint = "TGI"
result = "47.5 µM"

[[record]]
smiles_str = "CCc1cccc(C(C)C)c1NC(=O)C(=O)Nn1c(=S)[nH]c2ccccc2c1=O"
recorded_endpoint = "TGI"
result = "> 100 µM"

[[record]]
smiles_str = "Oc1ccc(/C=N/NC(=S)Nc2ccccc2)nc1"
recorded_endpoint = "TGI"
result = "> 100 µM"

[[record]]
smiles_str = "N=C1C(c2nc3ccccc3c(=O)[nH]2)=C(O)CN1c1cccc(Cl)c1"
recorded_endpoint = "TGI"
result = "> 100 µM"


----------
Tested on: U251 CNS
Test: NCI tumour cell line growth inhibition, 48 h
recorded endpoint: TGI

[[record]]
molecule = "Cc1cc(N(CCC#N)CCC#N)ccc1/C(Sc1ccccc1)=C(\\NC(=O)/C=C/c1ccccc1)C(=O)Sc1ccccc1"
system_under_test = "U251 CNS"
result = "5.83 µM"

[[record]]
molecule = "O=C(Oc1ccc(C(c2c(O)c3ccccc3oc2=O)c2c(O)c3ccccc3oc2=O)cc1)c1ccc(C(=O)c2ccccc2)cc1"
system_under_test = "U251 CNS"
result = "54.7 µM"

[[record]]
molecule = "C=CCc1cc(O)ccc1O"
system_under_test = "U251 CNS"
result = "> 100 µM"

[[record]]
molecule = "COC(=O)C1=C(C)N(NC(N)=O)C2(N)N(NC(N)=O)C(C)=C(C(=O)OC)C12C#N (stereo not given)"
system_under_test = "U251 CNS"
result = "> 100 µM"

[[record]]
molecule = "CC(=O)n1nc(-c2[nH]c(C)c(-c3nn(C(C)=O)c(=S)o3)c2C)oc1=S"
system_under_test = "U251 CNS"
result = "> 100 µM"

[[record]]
molecule = "O=c1[nH]c(-c2ccccc2)nc2cc([N+](=O)[O-])c(/C(Cl)=C/c3ccccc3)cc12"
system_under_test = "U251 CNS"
result = "> 100 µM"

[[record]]
molecule = "NN/C(=N\\S(=O)(=O)c1cc(S(=O)(=O)c2ccccc2)cs1)Nc1ccc(Cl)cc1"
system_under_test = "U251 CNS"
result = "89.6 µM"

[[record]]
molecule = "CCOC(=O)CCCc1cc(=O)c2c(C)c3[nH]c4ccc(Cl)cc4c3c(C)c2[nH]1"
system_under_test = "U251 CNS"
result = "50.5 µM"

[[record]]
molecule = "CC(=O)NNc1nc(C)c(C(=O)/C=C/c2ccc(N(C)C)cc2)s1"
system_under_test = "U251 CNS"
result = "> 100 µM"

[[record]]
molecule = "C#CCC(O)c1ccc(OC)c(OCc2ccccc2)c1 (stereo not given)"
system_under_test = "U251 CNS"
result = "> 100 µM"

[[record]]
molecule = "Cc1ccc(/C=C(/C#N)n2nnc3cccc(F)c32)cc1"
system_under_test = "U251 CNS"
result = "14.4 µM"

[[record]]
molecule = "CCCN(CCCC(NC(C)=O)C(=O)NCc1ccccc1)C(=O)N(C)N=O (stereo not given)"
system_under_test = "U251 CNS"
result = "> 100 µM"

[[record]]
molecule = "COC(=O)C1=C(N)C2=C(N)Oc3ccccc3C2CC1=C(C#N)C#N (stereo not given)"
system_under_test = "U251 CNS"
result = "> 100 µM"

[[record]]
molecule = "CC1(C)CCC2(C(=O)O)C(O)CC3(C)C(=CCC4C5(C)CCC(OC6OCC(O)C(O)C6OC6OCC(O)C(O)C6OC6OCC(O)C(OC7OC(CO)C(O)C(O)C7O)C6O)C(C)(C)C5CCC43C)C2C1 (stereo not given)"
system_under_test = "U251 CNS"
result = "> 100 µM"

[[record]]
molecule = "COC(=O)CSc1cc(Cl)c(C)cc1S(=O)(=O)Nc1n[nH]c(N)n1"
system_under_test = "U251 CNS"
result = "> 10 µM"

[[record]]
molecule = "CN(C)/C=N/c1cc(=O)n(C)c(=O)n1C"
system_under_test = "U251 CNS"
result = "> 100 µM"

[[record]]
molecule = "CC1CCC2C(C)C(OC(=O)CCC(=O)O)OC3OC4(C)CCC1C32OO4 (stereo not given)"
system_under_test = "U251 CNS"
result = "31.3 µM"

[[record]]
molecule = "CCOP(=O)(OCC)C(Cc1c[nH]c2ccccc12)C(=O)O (stereo not given)"
system_under_test = "U251 CNS"
result = "> 100 µM"

[[record]]
molecule = "Cn1c(=O)oc2cc(C(O)CN3CCN(Cc4ccc5c(c4)OCO5)CC3)ccc21 (stereo not given)"
system_under_test = "U251 CNS"
result = "> 100 µM"

[[record]]
molecule = "Oc1c(Cl)cc(Cl)c(Cl)c1Cc1c(O)c(Cl)cc(Cl)c1Cl"
system_under_test = "U251 CNS"
result = "12.7 µM"


Data origin: PubChem BioAssay (NCI)
